Test system: HREC Rep-SCs
PROTOCOL: Cell viability assay (flow cytometry, PI)
Type: cell-based
TEST_SETTINGS: Homo sapiens, 72 h
ATTRIBUTE_MEASURED: EC50 (nM)

{"ENTRY_SMILES": "O=C1/C(=C/c2ccccc2F)CNC/C1=C\\c1ccccc1F", "ATTRIBUTE_MEASURED": "EC50", "REPORTED": 600}

* * *

Tested on: IMR-90 fibroblasts NCs
PROTOCOL: Cell viability assay (flow cytometry, PI)
Assay type: cell-based
TEST_SETTINGS: Homo sapiens, IMR-90, 72 h
ATTRIBUTE_MEASURED: EC50 (µM)

{"MOLECULE": "O=C1/C(=C/c2ccccc2F)CNC/C1=C\\c1ccccc1F [EF24]", "UOM": "µM", "REPORTED": 10.9}

Origin of measurements: paper PMC6366974
